Experiment: Henry solubility constant Hcp at 298.15 K (mol/(m3 Pa))
Conditions: reference: Zheng et al. (1997)
Quick list: Henry solubility constant Hcp per entry.
readout.type: Henry solubility constant Hcp

- CC(F)F: 0.00049
- O=C=O [carbon dioxide]: 0.00034
- FCC(F)(F)F: 0.00016
- FC(F)Cl: 0.00034
- FC(F)F: 0.00013

###

Quick list: Henry solubility constant Hcp per entry.
Assay: Henry solubility constant Hcp at 298.15 K (mol/(m3 Pa))
Conditions: reference: Lau et al. (2010)
readout.type: Henry solubility constant Hcp

• Brc1ccccc1 = 0.0039
• c1ccccc1 = 0.0014
• Clc1ccccc1 = 0.0017
• Cc1ccccc1 = 0.0013

###

Assay: Henry solubility constant Hcp at 298.15 K (mol/(m3 Pa))
Details: reference: Morrison and Billett (1952)
readout.type: Henry solubility constant Hcp

• O=C=O [carbon dioxide] = 0.00033
• O=O = 1.3e-05
• C=C = 4.7e-05
• [HH] [hydrogen] = 7.8e-06
• CCCC = 1.1e-05

###

Assay: Henry solubility constant Hcp at 298.15 K (mol/(m3 Pa))
Details: reference: Lei et al. (2007)
Please use True whenever Henry solubility constant Hcp is not below 0.4, and False whenever it is.

- CCCCCCO: True
- CCCCCO: True
- CCCCCCCCCCO: False
- CCCCCCCCO: False
- CCCCCCCO: False

###

Experiment: Henry solubility constant Hcp at 298.15 K (mol/(m3 Pa))
Details: reference: Smith et al. (1981b)
readout.type: Henry solubility constant Hcp

- FC(F)(F)C(Cl)Br (centres undefined): 0.00053
- COC(F)(F)C(Cl)Cl: 0.0029
- C=COCC(F)(F)F: 0.00055
- FC(F)OC(Cl)C(F)(F)F (centres undefined): 0.00048

###

Assay: Henry solubility constant Hcp at 303 K (mol/(m3 Pa))
Conditions: reference: Meynier et al. (2003)
readout.type: Henry solubility constant Hcp at 303 K

* CCC/C=C/C=O [(E)-2-hexenal] | 0.9
* CC(=O)OCCC(C)C [3-methylbutyl ethanoate] | 0.088
* CCCCCOC(C)=O [pentyl ethanoate] | 0.13
* CCCCC(=O)OCC [ethyl pentanoate] | 0.14

###

Test: Henry solubility constant Hcp at 298.15 K (mol/(m3 Pa))
Settings: reference: Vitenberg et al. (1975)
readout.type: Henry solubility constant Hcp

• CC(C)=O = 0.25
• CCS = 0.0022
• Cc1ccccc1 = 0.0019
• c1ccccc1 = 0.0018

###

Experiment: Henry solubility constant Hcp at 298.15 K (mol/(m3 Pa))
Conditions: reference: Wasik and Tsang (1970)
Quick list: Henry solubility constant Hcp per entry.
readout.type: Henry solubility constant Hcp

- Cc1ccccc1C: 0.0029
- c1ccccc1: 0.0016
- Cc1ccc(C)cc1: 0.0023
- Cc1ccccc1: 0.0017
- [2H]c1c([2H])c([2H])c([2H])c([2H])c1[2H]: 0.0016

###

Test: Henry solubility constant Hcp at 298.15 K (mol/(m3 Pa))
Settings: reference: Cetin and Odabasi (2005)
readout.type: Henry solubility constant Hcp

* Brc1ccc(Oc2ccc(Br)cc2Br)cc1 | 0.18
* Brc1ccc(Oc2c(Br)cc(Br)cc2Br)c(Br)c1 | 3.8
* Brc1cc(Br)c(Oc2cc(Br)c(Br)cc2Br)c(Br)c1 | 7.3
* Brc1c(Br)c(Br)c(Oc2c(Br)c(Br)c(Br)c(Br)c2Br)c(Br)c1Br | 18
* Brc1ccc(Oc2cc(Br)c(Br)cc2Br)c(Br)c1 | 1.5
* Brc1cc(Br)c(Oc2cc(Br)c(Br)cc2Br)cc1Br | 3.5
* Brc1ccc(Oc2ccc(Br)cc2Br)c(Br)c1 | 0.87

###

Experiment: Henry solubility constant Hcp at 296 K (mol/(m3 Pa))
Settings: reference: David et al. (2000)
readout.type: Henry solubility constant Hcp at 296 K

- ClCCl: 0.0039
- Cc1ccccc1: 0.0015
- C[Si]1(C)O[Si](C)(C)O[Si](C)(C)O[Si](C)(C)O[Si](C)(C)O1: 7.4e-05
- ClC=C(Cl)Cl: 0.001
- C[Si](C)(C)O[Si](C)(C)C: 7.7e-07

###

Experiment: Henry solubility constant Hcp at 298.15 K (mol/(m3 Pa))
Settings: reference: Krause and Benson (1989)
Quick list: Henry solubility constant Hcp per entry.
readout.type: Henry solubility constant Hcp

- [Xe]: 4.3e-05
- [Ar]: 1.4e-05
- [He]: 3.9e-06
- [Kr]: 2.5e-05
- [Ne]: 4.5e-06

###

Assay: Henry solubility constant Hcp at 298.15 K (mol/(m3 Pa))
Conditions: reference: Chang and Criddle (1995)
readout.type: Henry solubility constant Hcp

* FC(F)Cl [chlorodifluoromethane] | 0.00017
* FCC(F)(F)F [1,1,1,2-tetrafluoroethane] | 0.00019
* CC(F)(F)Cl [1-chloro-1,1-difluoroethane] | 0.00015
* FC(F)(F)C(Cl)Cl [2,2-dichloro-1,1,1-trifluoroethane] | 0.00032

###

Assay: Henry solubility constant Hcp at 298.15 K (mol/(m3 Pa))
Settings: reference: Chai et al. (2005)
readout.type: Henry solubility constant Hcp

- CC(C)=O [propanone]: 0.24
- CCCCCC(C)=O [2-heptanone]: 0.068
- CCCC(C)=O [2-pentanone]: 0.1
- CCCCC(C)=O [2-hexanone]: 0.086

###

Test: Henry solubility constant Hcp at 298.15 K (mol/(m3 Pa))
Settings: reference: Bobadilla et al. (2003)
Quick list: Henry solubility constant Hcp per entry.
readout.type: Henry solubility constant Hcp

* c1ccc2ccccc2c1 | 0.04
* ClCC(Cl)Cl | 0.012
* CC(Cl)CCl (stereo not given) | 0.0042
* Cc1ccc(C)cc1 | 0.002
* Cc1ccccc1 | 0.0021

###

Assay: Henry solubility constant Hcp at 298.15 K (mol/(m3 Pa))
Conditions: reference: Nguyen (2013)
Quick list: Henry solubility constant Hcp per entry.
readout.type: Henry solubility constant Hcp

* C1CN(CCOCCN2CCOCC2)CCO1 [dimorpholinodiethyl ether] | 1800
* CN1CCNCC1 [N-methylpiperazine] | 1800
* CN1CCN(C)CC1 [N,N'-dimethylpiperazine] | 200
* CC(C)(N)CO [2-amino-2-methyl-1-propanol] | 700
* CNCCCN [N-methyl-1,3-propanediamine] | 1400
* CC(N)CO (stereo not given) [2-amino-1-propanol] | 1300
* C1CNCCN1 [1,4-diazacyclohexane] | 4500
* C1COCCN1 [1-oxa-4-azacyclohexane] | 190
* CN(C)CCOCCO [dimethylaminoethoxyethanol] | 4300
* CC1CNCCN1 (stereo not given) [2-methylpiperazine] | 5000
* NCCCCCCN [1,6-hexanediamine] | 1000
* NCCOCCO [diglycolamine] | 6100
* CN(CCO)CCO [N-methyldiethanolamine] | 3900
* OCCN1CCNCC1 [N-(2-hydroxyethyl)piperazine] | 2900
* CC(N)CN (stereo not given) [1,2-diaminopropane] | 1400

###

Experiment: Henry solubility constant Hcp at 303 K (mol/(m3 Pa))
Details: reference: Richon et al. (1985)
Quick list: Henry solubility constant Hcp at 303 K per entry.
readout.type: Henry solubility constant Hcp at 303 K

• CCOC(C)=O [ethyl ethanoate] = 0.043
• CCOC=O [ethyl methanoate] = 0.023
• CC(C)=O = 0.19
• CCCOC(C)=O [propyl ethanoate] = 0.031

###

Assay: Henry solubility constant Hcp at 298.15 K (mol/(m3 Pa))
Settings: reference: Charles and Destaillats (2005)
readout.type: Henry solubility constant Hcp

- Clc1ccccc1-c1ccccc1 [2-chlorobiphenyl]: 0.03
- Clc1ccc(-c2ccccc2Cl)cc1 [2,4'-dichlorobiphenyl]: 0.023
- Brc1ccc(Oc2cc(Br)c(Br)cc2Br)c(Br)c1 [2,2',4,4',5-pentabromodiphenyl ether]: 0.27
- Brc1ccc(Oc2ccc(Br)cc2Br)c(Br)c1 [2,2',4,4'-tetrabromodiphenyl ether]: 0.17
- Clc1ccc(-c2ccc(Cl)cc2)cc1 [4,4'-dichlorobiphenyl]: 0.035

###

Assay: Henry solubility constant Hcp at 298.15 K (mol/(m3 Pa))
Details: reference: Murphy et al. (1983a)
Please use 1 (yes) whenever Henry solubility constant Hcp is not below 0.05, and 0 (no) whenever it is.

* Clc1cccc(-c2ccc(Cl)cc2Cl)c1 | 1 (yes)
* Clc1cccc(-c2ccccc2Cl)c1 | 0 (no)
* Clc1ccc(-c2c(Cl)c(Cl)cc(Cl)c2Cl)c(Cl)c1Cl | 0 (no)
* Clc1ccc(-c2cc(Cl)c(Cl)cc2Cl)cc1Cl | 0 (no)
* Clc1cc(-c2ccc(Cl)c(Cl)c2Cl)cc(Cl)c1Cl | 0 (no)
* Clc1ccc(-c2ccccc2Cl)cc1Cl | 1 (yes)
* Clc1cc(Cl)c(-c2c(Cl)ccc(Cl)c2Cl)cc1Cl | 0 (no)
* Clc1ccc(Cl)c(-c2cc(Cl)ccc2Cl)c1 | 0 (no)

Values compiled from Sander's compilation of Henry's law constants.
